All values here come from ChEMBL document CHEMBL5356985.

Test system: SK-MEL-28
Assay: Antiproliferative activity against human SK-MEL-28 cells assessed as cell growth inhibition at 20 uM incubated for 48 hrs by MTT assay
Format: functional
QUANTITY_NAME: inhibition at 20 µM (%)
A number alone suffices; assume %.

COMPOUND	QUANTITY_NAME	MEASUREMENT
Cc1sc([Se]c2sc(C)c(-c3cccc(F)c3)c2C(=O)NC(CO)C(=O)N2CCCC2)c(C(=O)NC(CO)C(=O)N2CCCC2)c1-c1cccc(F)c1 (stereo unspecified)	inhibition at 20 µM	25

Query the reported inhibition at 20 µM for SK-MEL-28; item: Cc1sc([Se]c2sc(C)c(-c3cccc(F)c3)c2C(=O)NC(CC(C)C)C(=O)N2CCCC2)c(C(=O)NC(CC(C)C)C(=O)N2CCCC2)c1-c1cccc(F)c1 (stereo unspecified)
18

Any idea what inhibition at 20 µM came out for Cc1sc([Se]c2sc(C)c(-c3cccc(F)c3)c2C(=O)NC(C)C(=O)N2CCCC2)c(C(=O)NC(C)C(=O)N2CCCC2)c1-c1cccc(F)c1 (stereo unspecified) on SK-MEL-28?
62

Entry Cc1sc([Se]c2sc(C)c(-c3ccccc3)c2C(=O)NC(C)C(=O)N2CCCC2)c(C(=O)NC(C)C(=O)N2CCCC2)c1-c1ccccc1 (stereo unspecified) , system SK-MEL-28: what inhibition at 20 µM was measured?
72

Under SK-MEL-28: inhibition at 20 µM value of Cc1sc([Se]c2sc(C)c(-c3cccc(Cl)c3)c2C(=O)NC(CO)C(=O)N2CCCC2)c(C(=O)NC(CO)C(=O)N2CCCC2)c1-c1cccc(Cl)c1 (stereo unspecified) ?
66

Kindly state the measured inhibition at 20 µM obtained for Cc1sc([Se]c2sc(C)c(-c3cccc(Cl)c3)c2C(=O)NC(Cc2ccccc2)C(=O)N2CCCC2)c(C(=O)NC(Cc2ccccc2)C(=O)N2CCCC2)c1-c1cccc(Cl)c1 (stereo unspecified) with SK-MEL-28.
22

====

Test system: SK-OV-3
Test: Antiproliferative activity against human SK-OV-3 cells assessed as reduction in cell viability incubated for 24 hrs by MTT assay
Assay type: functional, cell-based
Details: SK-OV-3, 24 h
QUANTITY_NAME: IC50 (nM)
State the answer as a number, implicitly in nM.

COc1ccc(/C=C/C(=O)c2ccc(OC)c3c2OC(C)(C)C=C3)cc1OC(=O)CNC(=O)OC(C)(C)C 120

# input for lookup
Which IC50 value belongs to COc1ccc(/C=C/C(=O)c2ccc(OC)c3c2OC(C)(C)C=C3)cc1O ?
420

====

Test system: SK-MEL-28
Assay: Antiproliferative activity against human SK-MEL-28 cells assessed as cell growth inhibition at 20 uM incubated for 48 hrs by MTT assay
Type: functional
QUANTITY_NAME: inhibition at 20 µM (%)
Use % as the unit, but write only the number.

MOLECULE	inhibition at 20 µM, %
Cc1sc([Se]c2sc(C)c(-c3cccc(Br)c3)c2C(=O)NC(Cc2ccccc2)C(=O)N2CCCC2)c(C(=O)NC(Cc2ccccc2)C(=O)N2CCCC2)c1-c1cccc(Br)c1 (stereo not drawn)	18

So what does the record say about inhibition at 20 µM for Cc1sc([Se]c2sc(C)c(-c3cccc(Br)c3)c2C(=O)NC(C(=O)N2CCCC2)C(C)C)c(C(=O)NC(C(=O)N2CCCC2)C(C)C)c1-c1cccc(Br)c1 (stereo not drawn) ?
34
